# System: CP265
# METHOD_NOTES: qHTS profiling for inhibitors of Plasmodium falciparum proliferation (AID 504749); further: nearly all actives have a fitted effect of over 60% in size
# PROTOCOL_CONDITIONS: P. falciparum in erythrocytes, SYBR Green DNA, 72 h; series mostly up to 28.7 µM
# Experimental: NIH National Institute of Allergy and Infectious Diseases [NIAID] NIH Chemical Genomics Center [NCGC] […] Because mature erythrocytes lack DNA, only Plasmodium-derived DNA is detected. NCGC Assay Protocol Summary: The SYBR Green viability assay was adapted from a method described previously (Plouffe et al., 2008). […] The following morning, fluorescence intensity at 485(14) nm excitation and 535(25) nm emission wavelengths was measured on an EnVision (Perkin Elmer) plate reader. […]
Records with an inconclusive call do not appear. Calls of active or inactive are those of the source. The call rests on the fitted dose curve; in most records, active means well fitted inhibition curve with a large enough effect; inconclusive means small, poorly fitted or top-dose-only effect; inactive means flat fitted curve, though single readings scatter.
Possible outcomes: 1.0 for active, 0.0 for inactive

{"columns": ["COMPOUND", "LABEL_CLASS"],
 "data": [
  ["CC(CNC(=O)c1cccnc1)NC(=O)c1cccnc1 (stereo not drawn)", 0.0],
  ["CCc1ncnc2cc(OC)c(OC)cc12", 0.0],
  ["CC(CC=O)CCCC(C)(C)O (stereo not drawn)", 0.0],
  ["O=C1[O][Bi][O]c2ccccc21", 0.0],
  ["O=C(NNCS(=O)(=O)O)c1ccncc1", 0.0],
  ["Nc1nc(=O)n([C@@H]2CS[C@H](CO)O2)cc1F", 0.0],
  ["CC(C)(CO)[C@@H](O)C(=O)NCCC(=O)NCCSSCCNC(=O)CCNC(=O)[C@H](O)C(C)(C)CO", 0.0],
  ["O=C(O)CCC/C=C\\C[C@@H]1[C@@H](/C=C/[C@@H](O)COc2cccc(C(F)(F)F)c2)[C@H](O)C[C@@H]1O", 0.0],
  ["CC(C)c1nc(N(C)S(C)(=O)=O)nc(-c2ccc(F)cc2)c1/C=C/C(O)CC(O)CC(=O)O (stereo not drawn)", 0.0],
  ["c1ccc2c(c1)Sc1ccccc1N2CCN1CCCC1", 1.0],
  ["O=C(CCCCCCCCCCCCC1CCCC1)Nc1ccc(S(=O)(=O)c2ccc(NC(=O)CCCCCCCCCCCCC3CCCC3)cc2)cc1", 0.0],
  ["O=S(=O)(O)CC(S)CS (stereo not drawn)", 0.0],
  ["Cc1ccc(S(=O)(=O)NCl)cc1", 0.0],
  ["COc1ccc2c(=O)c(C)c(-c3ccccc3)oc2c1CN(C)C", 0.0],
  ["OC/C=C/c1ccccc1", 0.0],
  ["Cc1ncc(C[n+]2csc(CCOP(=O)(O)O)c2C)c(N)n1", 0.0],
  ["CC(C)[C@@H](N)C(=O)O", 0.0],
  ["CCCCC/C=C\\C/C=C\\C/C=C\\CCCCC(=O)O", 0.0],
  ["NC(=O)C1c2ccccc2CCc2ccccc21", 0.0],
  ["CC(C)CCC[C@@H](C)[C@H]1CC[C@H]2[C@@H]3CC=C4C[C@@H](O)CC[C@]4(C)[C@H]3CC[C@]12C", 0.0],
  ["COc1ccc(/C=C/C(=O)OCCC(C)C)cc1", 0.0],
  ["NCC(O)CC(=O)O (stereo not drawn)", 0.0],
  ["CC(=O)N=c1sc(S(N)(=O)=O)nn1C", 0.0],
  ["CCN(CC)C(=O)c1cccnc1", 0.0],
  ["NC(=O)[C@H]1O[C@@H](O)[C@H](O)[C@@H](O)[C@@H]1O", 0.0],
  ["CC1(C)S[C@@H]2[C@H](NC(=O)C3(N)CCCCC3)C(=O)N2[C@H]1C(=O)O", 0.0],
  ["NC(N)=O", 0.0],
  ["CC/C(=C(/CC)c1ccc(OP(=O)(O)O)cc1)c1ccc(OP(=O)(O)O)cc1", 0.0]
]}

---

# METHOD_NOTES: P-glycoprotein substrates identified in KB-8-5-11 adenocarcinoma cell line, qHTS therapeutic library screen (AID 1346987); further: nearly all actives have a fitted effect of over 65% in size
# PROTOCOL_CONDITIONS: KB-8-5-11 (P-gp overexpressing) viability, CellTiter-Glo, 72 h; series mostly up to 44.5 µM
# Method: The ATP-binding cassette transporters P-glycoprotein (P-gp) is known to limit brain penetration of many chemotherapy drugs. […] All cell lines were plated into 1536-well plates at 500 cells/well in 5 uL media. […] CellTiter-Glo reagent (Promega) was dispensed into the wells, incubated for 5 min and luminescence was read on a ViewLux instrument (Perkin-Elmer). […]
Inconclusive results are not listed. Calls of active or inactive are those of the source. Calls follow the shape of the dose curve; as a rule, active = well fitted inhibition curve with a large enough effect; inconclusive = small, poorly fitted or top-dose-only effect; inactive = flat fitted curve, though single readings scatter.
Possible outcomes: active, inactive

{"columns": ["COMPOUND", "LABEL_CLASS"],
 "data": [
  ["CC(=O)Oc1cc(C(F)(F)F)ccc1C(=O)O", "inactive"],
  ["CC(=O)Nc1ccc(OC(=O)c2ccccc2O)cc1", "inactive"],
  ["CC(C)[C@H](N)C(=O)OCC(CO)OCn1cnc2c(=O)[nH]c(N)nc21 (stereo partly drawn)", "inactive"],
  ["COc1cc(S(C)=O)ccc1-c1nc2ncccc2[nH]1 (stereo not drawn)", "inactive"],
  ["CCOC(=O)c1c[nH]c2cc(OCC(C)C)c(OCC(C)C)cc2c1=O", "inactive"],
  ["C=O", "inactive"],
  ["COc1cc2c(cc1OC)[C@@H](c1ccccc1)CN(C)CC2", "inactive"],
  ["CC(C)(C)NCC(O)c1ccc(O)c(CO)n1 (stereo not drawn)", "inactive"],
  ["CCCCC(CC)COS(=O)(=O)O (stereo not drawn)", "inactive"],
  ["O=C1CCC(=O)N1CO", "inactive"],
  ["O=C(O)[C@H]1CN(C/C=C/P(=O)(O)O)CCN1", "inactive"],
  ["Cn1c(=O)c2c(ncn2CCOC(=O)C(C)(C)Oc2ccc(Cl)cc2)n(C)c1=O", "active"],
  ["CCN(CC)CCOC[C@H]1O[C@@H](O)[C@H](OCCN(CC)CC)[C@@H](O)[C@@H]1O", "inactive"]
]}

---

# SUBJECT_OF_TEST: Cytochrome P450 2D6 (Homo sapiens)
# METHOD_NOTES: Cytochrome P450 family 2 subfamily D member 6 (CYP2D6) small molecule antagonists: luciferase biochemical (cell-free) qHTS assay (AID 1645840); further: nearly all actives have a fitted effect of over 55% in size
# PROTOCOL_CONDITIONS: P450-Glo CYP2D6 enzyme, luciferin luminescence, 1 h; series mostly up to 57.4 µM
Results filed as inconclusive are left out. The source made the active and inactive calls. Calls come from the whole dose curve; as a rule, active = well fitted inhibition curve with a large enough effect in the repeat runs; inconclusive = weak or mixed curves; inactive = flat fitted curve, though single readings scatter.
Possible outcomes: 1 (active), 0 (inactive)

{"columns": ["COMPOUND", "LABEL_CLASS"],
 "data": [
  ["Nc1nc(=O)n([C@@H]2CS[C@H](CO)O2)cc1F", 0],
  ["O=P(O)(O)OP(=O)(O)O", 0],
  ["CC[C@H]1OC(=O)[C@H](C)[C@@H](O[C@H]2C[C@@](C)(OC)[C@@H](O)[C@H](C)O2)[C@H](C)[C@@H](O[C@@H]2O[C@H](C)C[C@H](N(C)C)[C@H]2O)[C@](C)(O)C[C@@H](C)CN(C)[C@H](C)[C@@H](O)[C@]1(C)O", 0],
  ["CN(C)c1ccc(C(=C2C=CC(=[N+](C)C)C=C2)c2c(O)c(S(=O)(=O)[O-])cc3cc(S(=O)(=O)O)ccc23)cc1", 1],
  ["CCCCCCCCCCCCCCCCCC[N+](C)(C)CCC[Si](OC)(OC)OC", 1],
  ["CCC(O)c1ccccc1 (stereo not given)", 0],
  ["C=CC1=C(C(=O)O)N2C(=O)[C@@H](NC(=O)/C(=N\\O)c3csc(N)n3)[C@H]2SC1 (stereo in doubt)", 0],
  ["O=S(=O)(O)CC(S)CS (stereo not given)", 0],
  ["O=S(=O)(O)CCCS(=O)(=O)O", 0],
  ["CC(CC=O)CCCC(C)(C)O (stereo not given)", 0],
  ["CCCCC(=O)O[C@H]1CC[C@H]2[C@@H]3CCc4cc(O)ccc4[C@H]3CC[C@]12C", 0],
  ["c1ccc2ccccc2c1", 0],
  ["CC[C@H]1OC(=O)C[C@@H](O)[C@H](C)[C@@H](O[C@@H]2O[C@H](C)[C@@H](O[C@H]3C[C@@](C)(O)[C@@H](O)[C@H](C)O3)[C@H](N(C)C)[C@H]2O)[C@@H](CC=O)C[C@@H](C)C(=O)/C=C/C(C)=C/[C@@H]1CO[C@@H]1O[C@H](C)[C@@H](O)[C@@H](OC)[C@H]1OC", 0],
  ["FCOC(C(F)(F)F)C(F)(F)F", 0],
  ["COC(=O)[C@@H](N)CS", 0],
  ["COC(=O)c1ccccc1O", 0],
  ["C[C@]12CC[C@@H]3c4ccc(OC(=O)c5ccccc5)cc4CC[C@H]3[C@@H]1CC[C@@H]2O", 0],
  ["NC(=O)OCC(O)COc1ccc(Cl)cc1 (stereo not given)", 0],
  ["Nc1ccc(N=Nc2ccccc2)c(N)n1", 1],
  ["FC(F)OC(Cl)C(F)(F)F (stereo not given)", 0],
  ["C=CCCCCCCCCC(=O)OC", 0],
  ["CC(CCc1ccc(O)cc1)NCC(O)c1ccc(O)cc1 (stereo not given)", 1],
  ["CCN(CC)C(=O)c1cccnc1", 0],
  ["C=C1CC[C@H](O)CC1=C/C=C1\\CCC[C@]2(C)[C@@H]([C@H](C)/C=C/[C@H](C)C(C)C)CC[C@@H]12", 0],
  ["c1ccc(-n2cnnn2)cc1", 0]
]}
